Target: Thymidine kinase (Herpes simplex virus 1)
Assay: Binding affinity was determined against Herpes simplex virus (HSV) -1 thymidine kinase in vero cell monolayer culture
Parameter measured: pKi
Formally, pKi is defined as -log10 of the concentration c, with c in mol/L.

Query block: Notebook entry, Thymidine kinase (Herpes simplex virus 1) assay: pKi of "Nc1nc2c(ncn2CC=C(CO)CO)c(=O)[nH]1" = ?
Result block: 4.60
